Test system: BEN
ASSAY OVERVIEW: relative viability (nuclei count vs DMSO), 5 days (fraction); higher = more cells survive
ASSAY CONTEXT: first compound 0.02 µM
ASSAY METRIC: relative viability

1) CCNC(=O)c1noc(-c2cc(C(C)C)c(O)cc2O)c1-c1ccc(CN2CCOCC2)cc1 [Luminespib] + CS(=O)(=O)CCNCc1ccc(-c2ccc3ncnc(Nc4ccc(OCc5cccc(F)c5)c(Cl)c4)c3c2)o1 [Lapatinib] (partner 2 µM)	0.363
2) CN1CCN(CCOc2cc(OC3CCOCC3)c3c(Nc4c(Cl)ccc5c4OCO5)ncnc3c2)CC1 [Saracatinib] + Cc1nc(NC(=O)N2CCC[C@H]2C(N)=O)sc1-c1ccnc(C(C)(C)C(F)(F)F)c1 [Alpelisib] (partner 2 µM)	1.08
